Every entry's value here was drawn from paper PMC10847306.

System: E. coli clinical strain E08
Test: microbe, parasite or virus in culture
Details: strain E08
recorded metric: susceptibility category (S/I/R) given with the MIC

{"compound": "CN(C)[C@@H]1C(O)=C(C(N)=O)C(=O)[C@@]2(O)C(O)=C3C(=O)c4c(O)cccc4[C@@](C)(O)[C@H]3C[C@@H]12 [TET, tetracycline]", "meas value": "R"}
{"compound": "CO/N=C(\\C(=O)N[C@@H]1C(=O)N2C(C(=O)[O-])=C(C[N+]3(C)CCCC3)CS[C@H]12)c1csc(N)n1 [FEP, cefepime]", "meas value": "S"}
{"compound": "C[C@@H](O)[C@H]1C(=O)N2C(C(=O)O)=C(SCCN=CN)C[C@H]12 [IPM, imipenem]", "meas value": "S"}
{"compound": "C[C@H]1COc2c(N3CCN(C)CC3)c(F)cc3c(=O)c(C(=O)O)cn1c23 [LEV, levofloxacin]", "meas value": "S"}

###

Test system: E. coli clinical strain E10
Test: microbe, parasite or virus in culture
Settings: strain E10
Method: The clinical strains used in this study were obtained from a tertiary healthcare facility located in Guiyang, a city situated within the Guizhou Province of China. The E. coli ATCC 25922 was obtained from the Key and Characteristic Laboratory of Modern Pathogen Biology at Guizhou Medical University in Guiyang, China. […] The MIC were determined by a micro dilution method in Mueller-Hinton broth (MHB) ([Cuenca-Estrella et al., 2010]). […] MIC determination was performed by reading the OD600 nm. […]
recorded metric: susceptibility category (S/I/R) given with the MIC

{"compound": "C[C@H]1COc2c(N3CCN(C)CC3)c(F)cc3c(=O)c(C(=O)O)cn1c23 [LEV, levofloxacin]", "tested on": "E. coli clinical strain E10", "meas value": "S"}
{"compound": "CO/N=C(\\C(=O)N[C@@H]1C(=O)N2C(C(=O)[O-])=C(C[N+]3(C)CCCC3)CS[C@H]12)c1csc(N)n1 [FEP, cefepime]", "tested on": "E. coli clinical strain E10", "meas value": "R"}
{"compound": "C[C@@H](O)[C@H]1C(=O)N2C(C(=O)O)=C(SCCN=CN)C[C@H]12 [IPM, imipenem]", "tested on": "E. coli clinical strain E10", "meas value": "S"}
{"compound": "CN(C)[C@@H]1C(O)=C(C(N)=O)C(=O)[C@@]2(O)C(O)=C3C(=O)c4c(O)cccc4[C@@](C)(O)[C@H]3C[C@@H]12 [TET, tetracycline]", "tested on": "E. coli clinical strain E10", "meas value": "S"}

###

Test system: E. coli clinical strain E14
Assay: microbe, parasite or virus in culture
Conditions: Escherichia coli, 18 h
recorded metric: MIC

{"compound": "C[C@H]1COc2c(N3CCN(C)CC3)c(F)cc3c(=O)c(C(=O)O)cn1c23", "tested on": "E. coli clinical strain E14", "recorded metric": "MIC", "meas value": "> 8 µg/mL"}
{"compound": "CO/N=C(\\C(=O)N[C@@H]1C(=O)N2C(C(=O)[O-])=C(C[N+]3(C)CCCC3)CS[C@H]12)c1csc(N)n1 [FEP, cefepime]", "tested on": "E. coli clinical strain E14", "recorded metric": "MIC", "meas value": "16 µg/mL"}
{"compound": "C[C@@H](O)[C@H]1C(=O)N2C(C(=O)O)=C(SCCN=CN)C[C@H]12", "tested on": "E. coli clinical strain E14", "recorded metric": "MIC", "meas value": "≤ 1 µg/mL"}
{"compound": "CN(C)[C@@H]1C(O)=C(C(N)=O)C(=O)[C@@]2(O)C(O)=C3C(=O)c4c(O)cccc4[C@@](C)(O)[C@H]3C[C@@H]12", "tested on": "E. coli clinical strain E14", "recorded metric": "MIC", "meas value": "> 8 µg/mL"}
